Property: absorbance; scope: individual binders
target: T1, Rabbit; assay: ELISA
T1 construct: also called rabbit EphA4 extracellular domain-SEAP-His protein
VALUE KIND: absorbance

KPEP11_18 (antibody, V domains shown, Rabbit IgG/kappa; Used coated or HRP-labeled in the sandwich ELISAs; also called anti-human EphA4 rabbit monoclonal antibody KPEP11_18; HRP-labeled KPEP11_18) VH: QSLEESGGRLVTPGTPLTLTCTISGFSLSSFYINWVRQAPGRGLEWIGIIYPDIDATDYASWVKGRFTISKTSTTVDLKITSPTTEDTATYFCARSDVDYYTTRLDLWGQGTLVTVSS VL: DPMMTQTASPVSAAVGGTVSISCQSNKSVYSNWLSWFQQKPGQPPKLLIYGASTLASGVPSRFKGSGSGTQFTLTVSDVQCDDAATYFCLGGYRDNSDNAFGGGTEVVVKG | 0.059
KPEP11_02 (antibody, V domains shown, Rabbit IgG; also called anti-human EphA4 rabbit monoclonal antibody KPEP11_02) VH: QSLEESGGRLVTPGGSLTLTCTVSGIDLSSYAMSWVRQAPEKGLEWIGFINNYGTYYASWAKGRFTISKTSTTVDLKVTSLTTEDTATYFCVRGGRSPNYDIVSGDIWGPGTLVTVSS VL: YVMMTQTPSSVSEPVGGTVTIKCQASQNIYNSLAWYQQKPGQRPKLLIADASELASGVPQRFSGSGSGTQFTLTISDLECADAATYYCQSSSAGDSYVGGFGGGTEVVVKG | 0.04
KPEP11_13 (antibody, V domains shown, Rabbit IgG; also called anti-human EphA4 rabbit monoclonal antibody KPEP11_13) VH: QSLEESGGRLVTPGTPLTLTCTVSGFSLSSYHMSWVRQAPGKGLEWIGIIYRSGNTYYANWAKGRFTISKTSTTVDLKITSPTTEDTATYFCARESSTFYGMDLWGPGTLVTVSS VL: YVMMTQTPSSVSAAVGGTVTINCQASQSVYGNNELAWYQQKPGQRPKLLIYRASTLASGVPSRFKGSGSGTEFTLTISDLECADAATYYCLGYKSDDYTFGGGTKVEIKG | 0.083

Recorded values, source patent US20240385190A1.
